system: IGROV1 ovarian; test: NCI tumour cell line growth inhibition, 48 h
Field: GI50. Provide a value for each of the compounds that follow.

Give measured GI50 for every item shown.
1. Clc1ccc2c(c1)C(Br)c1cc(Cl)cc(Cl)c1-2 (configuration not stated)
2. CCC(CC)c1nc(Nc2cccc(OC)c2)c2ccccc2n1
3. COc1ccc(/C=C/C(=O)c2cc3c(N)c(C(=O)Nc4cccc(Cl)c4C)sc3nc2C)cc1
4. COc1cc2c(cc1I)-c1c(cc(OC)c(OC)c1OC)CC[C@@H]2NC(C)=O

Solution:
18.6 µM
10.2 µM
0.251 µM
0.323 µM

Give measured GI50 for every item shown.
1. Cn1ccc(=O)c2c(O)c3ccccc3c(O)c21
2. C[n+]1c(-c2ccccc2)c2cc(N)ccc2c2ccccc21
3. COc1cc(-c2ccc(-c3ccc(C(=N)N)cc3)s2)cc(OC)c1OC

Solution:
> 100 µM
5.78 µM
5 µM

====

tested on: DMS 114 small cell lung; assay: NCI tumour cell line growth inhibition, 48 h
Field: TGI. Provide a value for each of the compounds that follow.

Below, 3 compounds whose answers are already recorded.
CCOC(=O)C(C)c1c(C(=O)c2ccc(C)nc2)c2ccccc2n1C (centres undefined): > 100 µM
COc1ccc(CC#C/C=C/C(=O)NCC(C)C)cc1: > 100 µM
c1ccc(C2(c3ccccc3)SSC3(S2)C2CC4CC(C2)CC3C4)cc1 (centres undefined): > 100 µM

Consider the record given below.
Exercise: Lookup: TGI / DMS 114 small cell lung / COC(=O)/C(=N\NC(=O)c1ccccc1O)C(C#N)c1ccccc1 (centres undefined)
Solution: > 50 µM

====

Field: TGI. Provide a value for each of the compounds that follow.
test system: HOP-62 NSCLC; experiment: NCI tumour cell line growth inhibition, 48 h
One number for each entry, in µM.

CC(=O)Oc1c(-c2ccccc2)oc2ccccc12: 6
O=c1cc(-c2ccccc2)c2ccc(O)c(CN(CCCl)CCCl)c2o1: 33.2

Exercise: Lookup: TGI / HOP-62 NSCLC / `Cn1ncc(NC(=O)c2nc(-c3c(F)cccc3F)sc2N)c1N1CC[C@@H](N)[C@H](F)CC1`
Solution: 22.8

====

Field: TGI. Provide a value for each of the molecules that follow.
tested on: RPMI-8226 leukemia; assay: NCI tumour cell line growth inhibition, 48 h

O=C1C(Cl)=C(N2CCN(CCOCCO)CC2)C(=O)c2ncccc21: > 10 µM

Give measured TGI for every item shown.
1. O=C(c1ccccc1)N1CCN2CCN=C(c3ccccc3)C21c1ccccc1 (stereo not drawn)
2. O=C(Nc1nc(-c2ccc(Cl)cc2)cs1)c1cc(-c2ccc(Br)cc2)nc2ccc(Cl)cc12

Solution:
1. > 100 µM
2. > 100 µM

====

tested on: SK-MEL-5 melanoma; assay: NCI tumour cell line growth inhibition, 48 h; in the data active = GI50 below about 0.43 µM; inactive = the rest
Please reply with one of these outcomes: true for active, false for inactive

Take a look at these entries with their results.
CC1=C2O[C@]3(O)C=C2C(=C(O)C1=O)[C@@H]1O[C@H](CC[C@H](C)/C=C(\C)C[C@@H](C)C[C@@H]3C)[C@H](C)[C@H](O)[C@H]1C: false
c1ccc2cc(C[n+]3ccn(CCCCCCCCCCCCn4cc[n+](Cc5ccc6ccccc6c5)c4)c3)ccc2c1: false
COc1cc2c(cc1I)-c1c(cc(OC)c(OC)c1OC)CC[C@@H]2NC(C)=O: true
Cn1ccc(=O)c2c(O)c3ccccc3c(O)c21: false
N#Cc1c(-c2ccccc2)cc(-c2ccccc2)n(CCCC(=O)NO)c1=O: false

Exercise: # lookup: test call for `CN(C)c1cc[n+](/C(NS(=O)(=O)c2cc(C(=O)Nc3ccc(Cl)cc3)c(Cl)cc2[S-])=C(\C#N)C(=O)c2ccccc2)cc1`
Solution: false

Exercise: Same for `O=C(Nc1nc(-c2ccc(Cl)cc2)cs1)c1cc(-c2ccc(Br)cc2)nc2ccc(Cl)cc12`
Solution: false

Exercise: Same for CCO/C=N/C1=C(C#N)C(c2ccc(OC)cc2)c2sc3c(F)cccc3c2O1 (stereo unspecified)
Solution: false

Exercise: Same for `O=C(/C=C/c1ccc(Cl)cc1)c1ccc(Nc2nc(Nc3ccc(F)cc3)nc(Nc3ccc(F)cc3)n2)cc1`
Solution: false

Exercise: Same for `COc1cc2ccnc(C=O)c2cc1OC`
Solution: false

Exercise: Same for `COc1cc2c(cc1OCCCCCn1c(-c3ccc(OCc4ccccc4)cc3)nc3cc(N4CCOCC4)ccc31)N=C[C@@H]1CCCN1C2=O`
Solution: false

====

system: CAKI-1 renal; assay: NCI tumour cell line growth inhibition, 48 h
Residues, ends and D or L forms follow the SMILES beside them. *: point of attachment. Boc = CC(C)(C)OC(=O)*; OBn = c1ccc(CO*)cc1
Property: TGI

Below, 3 molecules whose answers are already recorded.
N#Cc1c(-c2ccccc2)cc(-c2ccccc2)n(CCCC(=O)NO)c1=O: 2.65 µM
CC1=CC(C)(C)[C@H]2O[C@@]3(O)C[C@]4(C)[C@H]5C[C@@](C(C)C)(O[C@H]4c4ccoc4)O[C@H]4[C@]5(C3)O[C@@]1(O)[C@]24O: > 100 µM
COc1ccc(/C=C/C(=O)c2cc3c(N)c(C(=O)Nc4cccc(Cl)c4C)sc3nc2C)cc1: > 26.7 µM

Give measured TGI for every item shown.
1. CCOC(=O)C1C(O)CC2c3ccccc3-c3ccccc3C21 (stereo not given)
2. CC(=O)Oc1c(-c2ccccc2)oc2ccccc12
3. NC(=S)N/N=C1\CCCCc2ccccc21
4. O=C1C(c2c(O)[nH]c3ccc([N+](=O)[O-])cc23)=Nc2ccccc21
5. Nc1nc(N)c(N=Nc2ccccc2)c(-c2ccccc2)n1
6. Cc1[nH]c(=O)[nH]c(=S)c1C(=O)NC1C2CCCCC2NC2CCCCC21 (stereo not given)
7. O=C(N[C@@H](c1ccccc1)[C@@H](O)C(=O)OCc1ccc2c(c1)OCO2)c1ccccc1
8. CC(C)CC(NC(=O)OC(C)(C)C)C(=O)NC(CC(=O)OCc1ccccc1)C(N)=O (stereo not drawn) (Boc-Leu-Asp(OBn)-NH2; configuration not given here)

Solution:
["> 100 µM", "2.62 µM", "> 10 µM", "> 100 µM", "23.5 µM", "33.7 µM", "> 100 µM", "> 100 µM"]

Give measured TGI for every item shown.
1. CC1=NC(C)(C)[N+]([O-])=C1
2. O=C(/C=C/NC(=O)OCc1ccccc1)OCc1ccccc1

Solution:
1: > 10 µM; 2: > 100 µM

Give measured TGI for every item shown.
1. C[N+](C)(C)CCN(Cc1cccs1)c1ccccn1
2. COc1ccc(C(=O)NCCC2CN(S(=O)(=O)C(F)(F)F)c3ccccc32)c(OC)c1 (stereo not given)

Solution:
["> 100 µM", "> 100 µM"]

====

test system: OVCAR-8 ovarian; test: NCI tumour cell line growth inhibition, 48 h
Field: TGI. Provide a value for each of the compounds that follow.

CC1=C(O)C(=O)C(C2=C(O)C(=O)C(C)=C(O)C2=O)=C(O)C1=O: > 100 µM

Give measured TGI for every item shown.
1. ClC(Cl)(Cl)C(N1CCN(c2ccccc2)CC1)N1CCN(c2ccccc2)CC1
2. CCCCCCCCOCC(CO)OCCCCCCCC (stereo not drawn)

Solution:
1: > 100 µM; 2: 37.7 µM

====

system: CCRF-CEM leukemia; test: NCI tumour cell line growth inhibition, 48 h
Field: TGI. Provide a value for each of the compounds that follow.

Below, 2 compounds whose answers are already recorded.
CC1=C(O)C(=O)C(C2=C(O)C(=O)C(C)=C(O)C2=O)=C(O)C1=O: > 100 µM
Nc1nonc1C(=Nc1ccc(F)c(Cl)c1)NO: > 100 µM

Consider the record given below.
Exercise: Fill in: TGI of `Cn1ccc(=O)c2c(O)c3ccccc3c(O)c21` is ___
Solution: > 100 µM

====

system: SF-295 CNS; test: NCI tumour cell line growth inhibition, 48 h
Property: TGI

CNc1ccccc1-c1nc2ccccc2c(=O)o1: > 100 µM
O=[N+]([O-])c1cc(Cl)c(Cl)cc1[N+](=O)[O-]: 5.23 µM
O=C1Nc2ccccc2/C1=C\c1c(Cl)nc2sccn12: 3.24 µM
O=C(Nc1ccc(OCc2nnc(-c3ccc(Cl)cc3)o2)c(F)c1)c1ccc(Cl)c(C(F)(F)F)c1: > 50 µM
Cc1cc(=O)oc2cc(OCc3nc4ccccc4c(=O)n3-c3ccccc3)ccc12: > 100 µM

Give measured TGI for every item shown.
1. C#CCn1cnc2cnc(Nc3cccc(NC(=O)CCl)c3)nc21
2. NC(=S)N/N=C1\CCCCc2ccccc21
3. CC12CP(=O)(c3ccccc3)CC1c1ccccc1C2c1ccccc1 (stereo unspecified)
4. Oc1ccc(O)c(Cc2ccccc2)c1
5. COC(=O)CN(CC1O[C@@H]2OC(C)(C)O[C@@H]2C1N=[N+]=[N-])C(=O)OCc1ccccc1 (stereo partly specified)
6. CCn1c(=O)c(Oc2ccc(F)cc2F)cc2cnc(NC3CCOCC3)nc21

Solution:
1: > 62.5 µM; 2: > 10 µM; 3: 29.8 µM; 4: > 100 µM; 5: > 100 µM; 6: > 25 µM

Give measured TGI for every item shown.
1. O=C(c1ccccc1)N1CCN2CCN=C(c3ccccc3)C21c1ccccc1 (stereo unspecified)
2. CC(=O)O[C@H]1C(=O)[C@@]2(C)[C@H]([C@H](OC(=O)c3ccccc3)[C@]3(O)C[C@H](OC(=O)[C@H](O)[C@@H](NC(=O)c4ccccc4)c4ccccc4C)C(C)=C1C3(C)C)[C@]1(OC(C)=O)CO[C@@H]1C[C@@H]2O
3. CCOC(=O)C1CCCCN1C(=O)OCc1ccccc1 (stereo unspecified)
4. CC/C=C/C[C@H](O[Si](C)(C)C(C)(C)C)[C@H]1C[C@H]2O[C@H]([C@@H](O)C#C[Si](C)(C)C)C[C@H]2O1
5. CN(C)CCCNC(=O)c1cc2/c(=C\c3ccc(N(C)C)cc3)c3ccccc3n2[n+]1C
6. O=C1C=CC(=O)c2cc3cc(CO)ccc3cc21

Solution:
1: > 100 µM; 2: > 9.21 µM; 3: > 100 µM; 4: 27.5 µM; 5: > 100 µM; 6: 37.8 µM

Give measured TGI for every item shown.
1. C/C=C(\C)[C@@H](O)C(=O)O[C@@H]1CC(C(C)(C)O)[C@](C)(CCC(=O)OC)[C@H]2[C@H](OC(=O)[C@H](O)[C@H](C)CC)C[C@]3(C)C(=CC[C@H]3[C@H]3CO[C@H](C=C(C)C)C3)[C@]12C (stereo partly specified)
2. CC(C)=CCC/C(C)=C/CO
3. CC1CCC2(OCCO2)[C@]2(C)CC(O)C(=O)C=C12 (stereo partly specified)
4. c1cc2c(s1)SSSSS2
5. CCCN=Cc1c(O)c(O)c(C(C)C)c2cc(C)c(-c3c(C)cc4c(C(C)C)c(O)c(O)c(C=NCCC)c4c3O)c(O)c12

Solution:
1. > 100 µM
2. > 100 µM
3. > 100 µM
4. 36.9 µM
5. > 24.7 µM
